The molecules listed here are annotated with their Dmax.
# target: SMARCA2 (Homo sapiens, UniProt P51531)
# Sequence (P51531 whole entry): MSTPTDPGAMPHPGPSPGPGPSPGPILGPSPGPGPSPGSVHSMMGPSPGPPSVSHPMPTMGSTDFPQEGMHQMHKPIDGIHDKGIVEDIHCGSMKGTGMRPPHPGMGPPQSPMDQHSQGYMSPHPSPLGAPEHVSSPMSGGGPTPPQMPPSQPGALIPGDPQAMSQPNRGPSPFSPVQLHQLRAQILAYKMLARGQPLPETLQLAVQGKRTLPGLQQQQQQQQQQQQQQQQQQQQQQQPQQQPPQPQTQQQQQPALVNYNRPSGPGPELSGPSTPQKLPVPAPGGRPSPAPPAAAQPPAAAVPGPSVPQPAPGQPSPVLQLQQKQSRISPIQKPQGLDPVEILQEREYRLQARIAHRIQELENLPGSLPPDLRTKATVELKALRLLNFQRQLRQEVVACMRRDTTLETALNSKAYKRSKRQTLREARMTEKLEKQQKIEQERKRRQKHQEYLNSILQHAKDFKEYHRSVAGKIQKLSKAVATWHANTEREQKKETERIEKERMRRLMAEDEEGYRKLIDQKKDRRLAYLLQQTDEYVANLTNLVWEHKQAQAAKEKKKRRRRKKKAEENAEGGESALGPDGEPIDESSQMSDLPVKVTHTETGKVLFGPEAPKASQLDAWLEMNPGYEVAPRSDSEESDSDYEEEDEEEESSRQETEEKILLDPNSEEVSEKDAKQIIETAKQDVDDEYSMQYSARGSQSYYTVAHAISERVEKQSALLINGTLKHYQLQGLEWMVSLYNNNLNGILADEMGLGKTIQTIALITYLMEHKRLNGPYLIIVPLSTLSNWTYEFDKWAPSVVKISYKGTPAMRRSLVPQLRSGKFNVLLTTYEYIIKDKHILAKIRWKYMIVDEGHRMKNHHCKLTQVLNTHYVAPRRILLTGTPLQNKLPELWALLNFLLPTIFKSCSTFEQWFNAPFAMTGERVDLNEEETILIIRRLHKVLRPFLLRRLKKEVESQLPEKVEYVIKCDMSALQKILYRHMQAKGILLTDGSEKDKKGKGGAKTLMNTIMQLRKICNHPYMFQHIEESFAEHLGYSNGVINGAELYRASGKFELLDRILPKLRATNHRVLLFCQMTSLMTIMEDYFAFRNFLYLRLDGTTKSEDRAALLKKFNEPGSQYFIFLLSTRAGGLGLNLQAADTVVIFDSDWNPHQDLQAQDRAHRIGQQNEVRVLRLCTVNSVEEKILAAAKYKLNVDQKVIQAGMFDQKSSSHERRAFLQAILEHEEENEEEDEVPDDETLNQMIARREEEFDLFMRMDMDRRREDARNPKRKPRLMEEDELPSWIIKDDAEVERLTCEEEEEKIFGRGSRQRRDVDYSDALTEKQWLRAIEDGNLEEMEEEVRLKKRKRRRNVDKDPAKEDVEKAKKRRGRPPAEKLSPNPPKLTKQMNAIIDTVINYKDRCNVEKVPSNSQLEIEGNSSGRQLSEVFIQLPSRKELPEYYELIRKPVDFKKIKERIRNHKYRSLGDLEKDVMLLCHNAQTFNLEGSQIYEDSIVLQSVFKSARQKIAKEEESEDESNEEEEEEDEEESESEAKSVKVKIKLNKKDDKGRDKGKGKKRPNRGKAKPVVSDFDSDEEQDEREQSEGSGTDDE
# assayProtocol: SMARCA2 Western blot degradation in MV4-11 cells
# Assay type: cell-based
# Set-up: SMARCA2/SMARCA4 protein degradation selectivity in MV4-11 cells; endogenous in cells; host or cells: MV4-11
# assaySetup: MV4-11, MV4-11 cells, 24 h; read-out: SMARCA2 MSD MV411 degradation 24 h: average Dmax %
valueKind: Dmax

molecule: C#Cc1ccc(CNC(=O)[C@@H]2C[C@@H](O)CN2C(=O)[C@@H](NC(=O)N2CC3(CC(N4CCC5(CCN(c6cnc(N7CCc8[nH]c9nnc(-c%10ccccc%10O)cc9c8C7C)nc6)C5)C4)C3)C2)C(C)(C)C)cc1 (some centres unmarked)
result: 50 to 70%

molecule: C#Cc1ccc(CNC(=O)[C@@H]2C[C@@H](O)CN2C(=O)[C@@H](NC(=O)N2CC3(CC(N4CCC(N5CCC(N6CCc7[nH]c8nnc(-c9ccccc9O)cc8c7[C@@H]6C)CC5)CC4)C3)C2)C(C)(C)C)cc1
result: 70 to 90%

----------
# target: SMARCA2 (Homo sapiens, UniProt P51531)
# assayProtocol: MSD SMARCA2 degradation in A549 cell line
# Format: cell-based
# assaySetup: A549 cells, 24 h, read-out: SMARCA2 MSD A549 degradation 24 h: Average external-Abs DC50

compound: C#Cc1ccc(CNC(=O)[C@@H]2C[C@@H](O)CN2C(=O)[C@@H](NC(=O)[C@H]2CC3(C2)C[C@H](N2CCC(N4CCC(N5CCN6c7cc(-c8ccccc8O)nnc7NC[C@H]6C5)CC4)CC2)C3)C(C)(C)C)c(OC)c1 (single isomer, unassigned) [I-232]
DC50: 10 to 50 nM
//
compound: C#Cc1ccc(CNC(=O)[C@@H]2C[C@@H](O)CN2C(=O)[C@@H](NC(=O)[C@H]2CCC3(CC2)C[C@H](N2CCC(N4CCC(N5CCN6c7cc(-c8ccccc8O)nnc7NC[C@H]6C5)CC4)CC2)C3)C(C)(C)C)c(F)c1 (stereo partly shown) [I-258]
DC50: > 100 nM
//
compound: C#Cc1ccc(CNC(=O)[C@@H]2C[C@@H](O)CN2C(=O)[C@H](NC(=O)N2CC3(CC(N4CCC(c5cnc(N6CCc7[nH]c8nnc(-c9ccccc9O)cc8c7[C@H]6C)nc5)CC4)C3)C2)C(C)(C)CCN2CCNCC2)cc1
DC50: > 100 nM
//
compound: C#Cc1ccc(CNC(=O)[C@@H]2C[C@@H](O)CN2C(=O)[C@@H](NC(=O)[C@H]2CCC3(CC2)C[C@H](N2CCN(c4cnc(N5CCN6c7cc(-c8ccccc8O)nnc7NC[C@H]6C5)nc4)CC2)C3)C(C)(C)CCO)c(Cl)c1 (single isomer, unassigned) [I-311]
DC50: 10 to 50 nM
//
compound: C#Cc1ccc(CNC(=O)[C@@H]2C[C@@H](O)CN2C(=O)[C@@H](NC(=O)[C@H]2CCC3(CC2)C[C@H](N2CCC(N4CC5(CC(N6CCN7c8cc(-c9ccccc9O)nnc8NC[C@H]7C6)C5)C4)CC2)C3)C(C)(C)C)cc1 (single isomer, unassigned) [I-223]
DC50: 50 to 100 nM
//
compound: C#Cc1ccc([C@H](C)NC(=O)[C@@H]2C[C@@H](O)CN2C(=O)[C@@H](NC(=O)N2CC3(CC(N4CCC(c5cnc(N6CCc7[nH]c8nnc(-c9ccccc9O)cc8c7[C@H]6C)nc5)CC4)C3)C2)C(C)(C)C)cc1
DC50: 10 to 50 nM
//
compound: C#Cc1ccc(CNC(=O)[C@@H]2C[C@@H](O)CN2C(=O)[C@@H](NC(=O)[C@H]2CC3(C2)C[C@H](N2CCC(N4CCC(N5CCN6c7cc(-c8ccccc8O)nnc7NC[C@H]6C5)CC4)CC2)C3)C(C)(C)C)cc1 (single isomer, unassigned)
DC50: 10 to 50 nM
//
compound: C#Cc1ccc(CNC(=O)[C@@H]2C[C@@H](O)CN2C(=O)[C@@H](NC(=O)N2CC3(CC(N4CCC(c5cnc(N6CCc7[nH]c8nnc(-c9ccccc9O)cc8c7[C@H]6C)nc5)CC4)C3)C2)C(C)(C)CCOCC(=O)O)cc1 (single isomer, unassigned)
DC50: > 100 nM
//
compound: C#Cc1ccc(C2(NC(=O)[C@@H]3C[C@@H](O)CN3C(=O)[C@@H](NC(=O)N3CC4(CC(N5CCC(N6CCC(N7CCc8[nH]c9nnc(-c%10ccccc%10O)cc9c8[C@H]7C)CC6)CC5)C4)C3)C(C)(C)C)CC2)cc1
DC50: > 100 nM
//
compound: C#Cc1ccc(CNC(=O)[C@@H]2C[C@@H](O)CN2C(=O)[C@@H](NC(=O)[C@H]2CC3(C2)C[C@H](N2CCC(N4CCC(N5CCN6c7cc(-c8ccccc8O)nnc7NC[C@H]6C5)CC4)CC2)C3)C(C)(C)C)c(Cl)c1 (single isomer, unassigned) [I-229]
DC50: > 100 nM
//
compound: C#Cc1ccc([C@H](C)NC(=O)[C@@H]2C[C@@H](O)CN2C(=O)[C@@H](NC(=O)[C@H]2CC3(C2)C[C@H](c2cnc(N4CCC(N5CCN6c7cc(-c8ccccc8O)nnc7NC[C@H]6C5)CC4)nc2)C3)C(C)(C)C)cc1 (stereo partly shown) [I-363]
DC50: 10 to 50 nM
//
compound: Cc1ncsc1-c1ccc(CNC(=O)[C@@H]2C[C@@H](O)CN2C(=O)[C@@H](NC(=O)[C@H]2CCC3(CC2)C[C@H](N2CCN(c4cnc(N5CCc6[nH]c7nnc(-c8ccccc8O)cc7c6[C@H]5C)nc4)CC2)C3)C(C)(C)C)cc1 (single isomer, unassigned) [I-112]
DC50: 50 to 100 nM
//
compound: C#Cc1ccc(CNC(=O)[C@@H]2C[C@@H](O)CN2C(=O)[C@@H](NC(=O)N2CC3(CC(N4CCC(N5CC6(CC(N7CCN8c9cc(-c%10ccccc%10O)nnc9NC[C@H]8C7)C6)C5)CC4)C3)C2)C(C)(C)C)cc1
DC50: 50 to 100 nM
//
compound: C#Cc1ccc(CNC(=O)[C@@H]2C[C@@H](O)CN2C(=O)C(c2cc(N3CCC(CN4CCC(N5CCC(N6CCN7c8cc(-c9ccccc9O)nnc8NC[C@H]7C6)CC5)CC4)CC3)no2)C(C)C)c(Cl)c1 (stereo partly shown)
DC50: 10 to 50 nM
//
compound: C#Cc1ccc2c(c1)OCC[C@@H]2NC(=O)[C@@H]1C[C@@H](O)CN1C(=O)[C@@H](NC(=O)N1CC2(CC(N3CCC(c4cnc(N5CCc6[nH]c7nnc(-c8ccccc8O)cc7c6[C@H]5C)nc4)CC3)C2)C1)C(C)(C)C (single isomer, unassigned)
DC50: > 100 nM
//
compound: Cc1ncsc1-c1ccc(CNC(=O)[C@@H]2C[C@@H](O)CN2C(=O)[C@@H](NC(=O)[C@H]2CC3(C2)C[C@H](N2CCC(c4ccnc(N5CCN6c7cc(-c8ccccc8O)nnc7NC[C@@H]6C5)n4)CC2)C3)C(C)(C)C)cc1 (single isomer, unassigned) [I-4]
DC50: > 100 nM
